Just for reference, patent US20230117034A1 is where these values come from.

Kindly supply the reported pIC50 values for the records listed here.
- system.under.test: CDK9/CycT1 (Homo sapiens)
- Construct: Recombinant full-length His-tagged human CDK9 and CycT1; purchased Life Technologies PV4131; host or cells: insect cells
- Sequence (P50750 whole entry): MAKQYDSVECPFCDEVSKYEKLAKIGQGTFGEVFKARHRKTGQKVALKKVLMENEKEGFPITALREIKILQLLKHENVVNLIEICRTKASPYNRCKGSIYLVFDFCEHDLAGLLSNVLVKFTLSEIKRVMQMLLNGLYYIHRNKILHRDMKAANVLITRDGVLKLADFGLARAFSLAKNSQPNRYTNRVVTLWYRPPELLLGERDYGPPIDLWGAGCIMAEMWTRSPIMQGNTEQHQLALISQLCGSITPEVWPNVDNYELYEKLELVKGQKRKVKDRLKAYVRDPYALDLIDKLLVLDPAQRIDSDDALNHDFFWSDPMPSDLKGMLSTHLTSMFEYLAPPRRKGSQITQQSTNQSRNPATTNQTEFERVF
- Sequence (O60563 whole entry partner): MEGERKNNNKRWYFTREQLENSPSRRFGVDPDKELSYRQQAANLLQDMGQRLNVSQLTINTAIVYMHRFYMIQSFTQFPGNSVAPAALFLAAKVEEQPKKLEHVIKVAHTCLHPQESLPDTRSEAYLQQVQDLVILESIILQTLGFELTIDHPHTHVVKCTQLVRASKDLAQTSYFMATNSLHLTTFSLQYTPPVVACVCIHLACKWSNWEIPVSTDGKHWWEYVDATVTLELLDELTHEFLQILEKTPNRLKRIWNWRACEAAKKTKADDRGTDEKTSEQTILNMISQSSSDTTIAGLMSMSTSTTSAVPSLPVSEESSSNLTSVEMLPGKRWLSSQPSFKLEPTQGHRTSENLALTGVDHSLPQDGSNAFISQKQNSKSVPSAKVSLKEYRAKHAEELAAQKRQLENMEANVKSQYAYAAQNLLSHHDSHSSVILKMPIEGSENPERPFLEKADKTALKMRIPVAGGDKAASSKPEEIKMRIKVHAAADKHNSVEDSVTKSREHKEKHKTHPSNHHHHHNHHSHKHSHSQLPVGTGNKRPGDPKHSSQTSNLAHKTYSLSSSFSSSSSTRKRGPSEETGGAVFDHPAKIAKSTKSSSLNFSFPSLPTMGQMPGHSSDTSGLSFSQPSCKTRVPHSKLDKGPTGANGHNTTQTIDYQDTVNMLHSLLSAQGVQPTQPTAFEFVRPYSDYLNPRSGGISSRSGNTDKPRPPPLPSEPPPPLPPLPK
- test.name: CDK9/CycT1 high ATP kinase assay (TR-FRET, 2 mM ATP)
- Format: biochemical
- conditions: 2 mM ATP (high ATP); median; read-out: CDK9/CyclinT1, 2 mM ATP (high ATP), IC50 (median)
pIC50: −log10 of the molar value.

Kindly note the recorded pIC50 for `Cc1ccnc2[nH]c(CNc3nc(N4CCOCC4)nc4c(C(C)C)cnn34)nc12` , which is < 4.70

Kindly note the recorded pIC50 for Fc1ccc2[nH]c(CNc3nc(N4CCOCC4)nc4c(C5CC5(F)F)cnn34)nc2c1F (centres unmarked) , which is < 4.70

Kindly note the recorded pIC50 for `Brc1cnn2c(NCc3ncc(-c4ccccn4)[nH]3)nc(N3CCOCC3)nc12` , which is 5.03

Kindly note the recorded pIC50 for CC1CN(C)CCN1c1nc(NCc2nc3ccccc3[nH]2)n2ncc(Br)c2n1 (single isomer, unassigned; enantiomer 1) [Example 260] , which is < 4.70

Kindly note the recorded pIC50 for `Fc1ccc2[nH]c(CNc3nc(N4CCOCC4)nc4c(Br)cnn34)nc2c1` , which is < 4.70

Kindly note the recorded pIC50 for `CN1CCN(c2nc(NCc3nc4cc(F)ccc4[nH]3)n3ncc(Br)c3n2)CC1` , which is < 4.70

Kindly note the recorded pIC50 for `Brc1cnn2c(NCc3nc4ccccc4[nH]3)nc(N3CC4(COC4)C3)nc12` , which is < 4.70

Kindly note the recorded pIC50 for `COC1CCN(c2nc(NCc3nnc(-c4ccccc4)[nH]3)n3ncc(Br)c3n2)CC1` , which is 5.11

* * *

- system.under.test: CDK2/CycE (Homo sapiens, UniProt P24941)
- Construct: purchased ProQinase GmbH (Freiburg, Germany); host or cells: insect cells (Sf9)
- test.name: CDK2/CycE kinase assay (TR-FRET, 2 mM ATP)
- Format: biochemical
- conditions: 2 mM ATP (high ATP); median; read-out: CDK2/CyclinE, 2 mM ATP (high ATP), IC50 (median)
readout.kind: pIC50
Formally, pIC50 is defined as -log10 of the concentration c, with c in mol/L.

Kindly note the recorded pIC50 for `Brc1cnn2c(NCc3nc4ccccc4[nH]3)nc(N3C[C@H]4CNC[C@H]4C3)nc12` , which is 5.12

Kindly note the recorded pIC50 for `CC(C)c1cnn2c(NCc3nc4ccccc4[nH]3)nc(N3CCN(C)CC3)nc12` , which is 4.95

Kindly note the recorded pIC50 for `Cc1cc2nc(CNc3nc(N4CCOCC4)nc4c(C5CC5)cnn34)[nH]c2cc1C` , which is 5.33

Kindly note the recorded pIC50 for `CN(c1nc(NCc2nc3ccccc3[nH]2)n2ncc(Br)c2n1)[C@H]1C[C@H](O)C1` , which is 5.76

Kindly note the recorded pIC50 for `FC(F)(F)c1cccc(-c2nnc(CNc3nc(N4CCOCC4)nc4c(Br)cnn34)[nH]2)c1` , which is 5.58

Kindly note the recorded pIC50 for `N[C@H]1CCN(c2nc(NCc3nc4ccccc4[nH]3)n3ncc(Br)c3n2)C1` , which is 5.30

* * *

Kindly supply the reported IC50 values for the records listed here.
- system.under.test: CDK9/CycT1 (Homo sapiens)
- Construct: Recombinant full-length His-tagged human CDK9 and CycT1; purchased Life Technologies PV4131; host or cells: insect cells
- test.name: CDK9/CycT1 high ATP kinase assay (TR-FRET, 2 mM ATP)
- Format: biochemical
- conditions: 2 mM ATP (high ATP); median; read-out: CDK9/CyclinT1, 2 mM ATP (high ATP), IC50 (median)

Kindly note the recorded IC50 for `COc1cccc(-c2cnc(CNc3nc(N4CCOCC4)nc4c(Br)cnn34)[nH]2)c1` , which is 5.43 µM

Kindly note the recorded IC50 for `CC(C)c1cnn2c(NCc3nnc(-c4ccccc4)[nH]3)nc(N3CCOCC3)nc12` , which is 14.1 µM

Kindly note the recorded IC50 for `Fc1ccc2[nH]c(CNc3nc(N4CCOCC4)nc4c(Br)cnn34)nc2c1F` , which is 5.78 µM

Kindly note the recorded IC50 for `CN[C@H]1CCN(c2nc(NCc3nc4ccccc4[nH]3)n3ncc(Br)c3n2)C1` , which is > 20 µM

Kindly note the recorded IC50 for `Brc1cnn2c(NCc3ncc(-c4ccccc4)[nH]3)nc(N3CCOCC3)nc12` , which is 3.24 µM

Kindly note the recorded IC50 for `NCCc1ccc2[nH]c(CNc3nc(N4CCOCC4)nc4c(Br)cnn34)nc2c1.O=CO` , which is > 18.9 µM

Kindly note the recorded IC50 for `COc1cccc2[nH]c(CNc3nc(N4C[C@H]5C[C@@H]4CO5)nc4c(C5CC5)cnn34)nc12` , which is > 20 µM

Kindly note the recorded IC50 for Fc1ccc2[nH]c(CNc3nc(N4CCOCC4)nc4c([C@@H]5CC5(F)F)cnn34)nc2c1 (single isomer, unassigned) , which is > 20 µM

Kindly note the recorded IC50 for CN1CCN(c2nc(NCc3nc4ccccc4[nH]3)n3ncc(Br)c3n2)C(CO)C1 (single isomer, unassigned) [Example 280] , which is > 20 µM

Kindly note the recorded IC50 for `Brc1cnn2c(NCc3nc4ccccc4[nH]3)nc(N3C[C@H]4CCCN[C@H]4C3)nc12` , which is > 20 µM

Kindly note the recorded IC50 for `Fc1cc2nc(CNc3nc(N4CC5CCC(C4)N5)nc4c(C5CC5)cnn34)[nH]c2cc1F` , which is > 20 µM

Kindly note the recorded IC50 for `Fc1cc2nc(CNc3nc(N4CC5CCC(C4)N5)nc4c(Br)cnn34)[nH]c2cc1F` , which is > 20 µM

Kindly note the recorded IC50 for `CN(c1nc(NCc2nc3ccccc3[nH]2)n2ncc(Br)c2n1)[C@H]1C[C@H](O)C1` , which is > 20 µM

Kindly note the recorded IC50 for `C[C@H]1CN(c2nc(NCc3nnc(-c4cccc(F)c4)[nH]3)n3ncc(Br)c3n2)CCN1C` , which is 2.56 µM

Kindly note the recorded IC50 for `C[C@@H]1CN(c2nc(NCc3nc4ccccc4[nH]3)n3ncc(Br)c3n2)CCN1` , which is > 20 µM

Kindly note the recorded IC50 for `Brc1cnn2c(NCc3nc4ccccc4[nH]3)nc(N3C[C@@H]4CCCN[C@@H]4C3)nc12` , which is > 20 µM

Kindly note the recorded IC50 for `O=C(O)C(F)(F)F.c1ccc2[nH]c(CNc3nc(N4CCOCC4)nc4c(-c5ccnnc5)cnn34)nc2c1` , which is > 20 µM

Kindly note the recorded IC50 for Brc1cnn2c(NCc3nc4ccccc4[nH]3)nc(N3C[C@H]4CC[C@@H]3CN4)nc12 (single isomer, unassigned) [Example 335] , which is > 20 µM

Kindly note the recorded IC50 for Brc1cnn2c(NCc3nc4ccccc4[nH]3)nc(N3CC4CCC3CN4)nc12 (stereo not drawn) , which is > 20 µM

Kindly note the recorded IC50 for `Cc1ccc2[nH]c(CNc3nc(N4C[C@H]5C[C@@H]4CO5)nc4c(C5CC5)cnn34)nc2c1` , which is > 20 µM

Kindly note the recorded IC50 for `Fc1cccc2[nH]c(CNc3nc(N4CCN5CCC4CC5)nc4c(C(F)(F)F)cnn34)nc12` , which is > 20 µM

Kindly note the recorded IC50 for `CN1CCN(c2nc(NCc3nc4ccccc4[nH]3)n3ncc(-c4ccncc4)c3n2)CC1` , which is > 20 µM

Kindly note the recorded IC50 for C[C@H]1CN(c2nc(NCc3nnc(-c4ccccc4)[nH]3)n3ncc(Br)c3n2)CCN1C.O=CO [Example 122, formate] , which is 4.26 µM

Kindly note the recorded IC50 for Brc1cnn2c(NCc3nc4ccccc4[nH]3)nc(N3C[C@H]4CC[C@@H]3CO4)nc12 (single isomer, unassigned) [Example 383] , which is > 20 µM

Kindly note the recorded IC50 for `Brc1cnn2c(NCc3nnc(-c4cccnc4)[nH]3)nc(N3CCOCC3)nc12` , which is 1.29 µM

Kindly note the recorded IC50 for `Brc1cnn2c(NCc3nc4ccccc4[nH]3)nc(N3CCN4CCC[C@@H]4C3)nc12` , which is > 20 µM

Kindly note the recorded IC50 for `COc1cccc2[nH]c(CNc3nc(N4CCOCC4)nc4c(-c5nccs5)cnn34)nc12` , which is > 20 µM

Kindly note the recorded IC50 for `CN1CCN(c2nc(NCc3nc4cc(F)c(Cl)cc4[nH]3)n3ncc(Br)c3n2)CC1` , which is > 20 µM

Kindly note the recorded IC50 for `CN(CC(C)(C)O)c1nc(NCc2nc3cc(F)c(Cl)cc3[nH]2)n2ncc(C3CC3)c2n1` , which is > 20 µM

Kindly note the recorded IC50 for `CN(CC(C)(C)O)c1nc(NCc2nc3cc(C(F)(F)F)ccc3[nH]2)n2ncc(Br)c2n1` , which is 6.24 µM
